Test system: SLK;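 note: KINOMEscan kinase panel screen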
Conditions: concentration: 1 μM, replicates: in singlicate; n = 1
measured_endpoint: %Inh (%)

{"compound": "Cn1ccc2ncnc(Oc3ccc(NC(=O)Nc4ccccc4)cc3)c21", "numeric_value": 22}
{"compound": "Cl.O=C(Nc1cccc(-c2nn3ncccc3c2-c2ccnc(Nc3cccnc3)n2)c1)c1c(F)cccc1F [GSK312879]", "numeric_value": 17}
{"compound": "Cc1cccc(-c2nc(Nc3cccc(C(N)=O)c3)c3ccccc3n2)n1 [GW876019]", "numeric_value": 14}
{"compound": "O=C(O)COc1ncnc2cc(-c3ccc4[nH]ncc4c3)sc12", "numeric_value": 0}
{"compound": "COc1ccc(Nc2nccc(NCCNC(=O)Nc3ccccc3F)n2)cc1 [GSK1379901]", "numeric_value": 11}
{"compound": "Cc1c(Cn2ccn3c(=O)cc(N4CCOCC4)nc23)cccc1C(F)(F)F [GSK2289044]", "numeric_value": 13}
{"compound": "CS(=O)(=O)c1ccc(-c2c(-c3ncn[nH]3)sc(N3CCOCC3)c2C#N)cc1", "numeric_value": 3}
{"compound": "Cc1csc(-c2nc(Nc3ccncc3)c3ccccc3n2)n1 [GW869640]", "numeric_value": 22}
{"compound": "COc1ccc(Nc2nccc(-c3cccc(NC(=O)c4cc5cc(F)ccc5[nH]4)c3)n2)cc1 [GSK1229782]", "numeric_value": 29}
